test: Clearance in human hepatocytes assessed per million cells by HPLC/atmospheric pressure chemical ionization/MS analysis; assay type: ADME, cell-based, Hepatocyte; details: read-out: CLH
property name: hepatocyte CLint (µL/min/1e6 cells)

* CCNCCS(=O)(=O)CC[C@@H]1OCC[C@@]2(S(=O)(=O)c3ccc(Cl)cc3)c3c(F)ccc(F)c3OC[C@@H]12 | 15.1
* O=S(=O)(CC[C@@H]1OCC[C@@]2(S(=O)(=O)c3ccc(Cl)cc3)c3c(F)ccc(F)c3OC[C@@H]12)C[C@@H]1CCCN1 | 5.6

[1] CNC(C)(C)CCS(=O)(=O)CC[C@@H]1OCC[C@@]2(S(=O)(=O)c3ccc(Cl)cc3)c3c(F)ccc(F)c3OC[C@@H]12
[2] O=S(=O)(CC[C@@H]1OCC[C@@]2(S(=O)(=O)c3ccc(Cl)cc3)c3c(F)ccc(F)c3OC[C@@H]12)CC1=NCCN1
[3] O=S(=O)(CC[C@@H]1OCC[C@@]2(S(=O)(=O)c3ccc(Cl)cc3)c3c(F)ccc(F)c3OC[C@@H]12)CCN1CCNCC1
Task item: Ascending by hepatocyte CLint, please: list the compounds accordingly. Respond with an ordered listing of the labels, as requested.
Reply: 3, 2, 1
(3: 5.3 µL/min/1e6 cells, 2: 13.7 µL/min/1e6 cells, 1: 20.4 µL/min/1e6 cells)

[1] CNCCS(=O)(=O)CC[C@@H]1OCC[C@@]2(S(=O)(=O)c3ccc(Cl)cc3)c3c(F)ccc(F)c3OC[C@@H]12
[2] O=S(=O)(CC[C@@H]1OCC[C@@]2(S(=O)(=O)c3ccc(Cl)cc3)c3c(F)ccc(F)c3OC[C@@H]12)[C@H]1CCNC1
Task item: Which value of hepatocyte CLint is smaller, the one for 1 or the one for 2 ? Identify your selection by its label.
Reply: 1
(1: 17.3 µL/min/1e6 cells, 2: 34.2 µL/min/1e6 cells)

[a] NCCS(=O)(=O)CC[C@@H]1OCC[C@@]2(S(=O)(=O)c3ccc(Cl)cc3)c3c(F)ccc(F)c3OC[C@@H]12
[b] O=S(=O)(CC[C@@H]1OCC[C@@]2(S(=O)(=O)c3ccc(Cl)cc3)c3c(F)ccc(F)c3OC[C@@H]12)[C@@H]1CCNC1
Task item: Which value of hepatocyte CLint is smaller, the one for a or the one for b ? Identify your selection by its label.
Reply: a
(a: 8.5 µL/min/1e6 cells, b: 14.5 µL/min/1e6 cells)
